Test System: α4β1 (Homo sapiens, UniProt P05556+P13612)
Construct: Ramos Cell Adhesion Assay (α4β1 Mediated Adhesion/VCAM-1); endogenous in cells; host or cells: Ramos cells
Sequence (P13612 34-1032): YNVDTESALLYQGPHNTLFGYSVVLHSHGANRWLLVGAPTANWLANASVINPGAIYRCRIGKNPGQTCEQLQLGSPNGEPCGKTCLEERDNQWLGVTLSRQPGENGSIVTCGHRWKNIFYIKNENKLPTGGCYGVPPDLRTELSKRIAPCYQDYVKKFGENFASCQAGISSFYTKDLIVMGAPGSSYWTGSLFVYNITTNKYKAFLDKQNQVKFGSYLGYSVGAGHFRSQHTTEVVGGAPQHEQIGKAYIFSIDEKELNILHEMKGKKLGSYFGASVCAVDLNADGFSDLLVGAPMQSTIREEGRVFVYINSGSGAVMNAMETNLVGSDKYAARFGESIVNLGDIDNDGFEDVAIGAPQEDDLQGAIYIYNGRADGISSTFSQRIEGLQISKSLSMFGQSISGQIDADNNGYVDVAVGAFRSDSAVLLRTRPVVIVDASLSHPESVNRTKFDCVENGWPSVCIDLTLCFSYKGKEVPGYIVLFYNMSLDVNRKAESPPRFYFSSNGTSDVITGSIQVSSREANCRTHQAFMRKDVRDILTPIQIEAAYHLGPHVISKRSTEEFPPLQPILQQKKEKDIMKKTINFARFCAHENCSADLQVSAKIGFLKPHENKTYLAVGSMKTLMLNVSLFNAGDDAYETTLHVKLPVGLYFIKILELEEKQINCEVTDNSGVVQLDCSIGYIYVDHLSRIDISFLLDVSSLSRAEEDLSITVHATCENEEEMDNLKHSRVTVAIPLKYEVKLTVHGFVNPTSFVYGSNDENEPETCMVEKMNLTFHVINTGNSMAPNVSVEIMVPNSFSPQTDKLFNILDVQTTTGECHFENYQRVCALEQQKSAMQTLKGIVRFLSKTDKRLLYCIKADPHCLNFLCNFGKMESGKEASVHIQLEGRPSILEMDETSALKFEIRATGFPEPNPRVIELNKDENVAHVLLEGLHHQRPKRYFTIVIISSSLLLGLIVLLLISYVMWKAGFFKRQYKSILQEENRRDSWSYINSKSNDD
Sequence (P05556 21-798): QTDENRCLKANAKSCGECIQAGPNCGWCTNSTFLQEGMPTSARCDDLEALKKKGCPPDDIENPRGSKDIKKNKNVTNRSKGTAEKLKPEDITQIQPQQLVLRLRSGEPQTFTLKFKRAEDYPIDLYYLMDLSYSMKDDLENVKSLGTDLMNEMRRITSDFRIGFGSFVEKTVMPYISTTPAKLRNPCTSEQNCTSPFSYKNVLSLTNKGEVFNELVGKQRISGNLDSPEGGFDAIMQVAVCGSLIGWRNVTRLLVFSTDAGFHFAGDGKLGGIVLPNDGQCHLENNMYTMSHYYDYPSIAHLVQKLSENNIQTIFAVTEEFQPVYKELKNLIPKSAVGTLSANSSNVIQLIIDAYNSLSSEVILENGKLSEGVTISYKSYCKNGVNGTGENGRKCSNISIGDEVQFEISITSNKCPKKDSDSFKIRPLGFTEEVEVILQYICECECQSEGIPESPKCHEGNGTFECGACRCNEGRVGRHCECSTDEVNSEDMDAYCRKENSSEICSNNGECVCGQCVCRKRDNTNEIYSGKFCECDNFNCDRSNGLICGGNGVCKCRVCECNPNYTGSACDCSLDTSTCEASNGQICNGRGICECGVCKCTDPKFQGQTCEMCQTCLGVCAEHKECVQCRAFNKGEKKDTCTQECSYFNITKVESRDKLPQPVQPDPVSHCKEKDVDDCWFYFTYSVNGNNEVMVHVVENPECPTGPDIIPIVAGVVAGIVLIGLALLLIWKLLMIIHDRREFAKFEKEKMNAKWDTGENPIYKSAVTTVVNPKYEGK
Method Notes: Ramos Cell Adhesion Assay (α4β1 Mediated Adhesion/VCAM-1)
Format: cell-based
Protocol Conditions: Ramos cell adhesion to hVCAM-1; read-out: α4β1 IC50
Can you tell me IC50 for the items I'm about to list?

Study these solved cases before continuing.
{"columns": ["Compound", "IC50"],
 "data": [
  ["COc1cnn(C)c(=O)c1-c1ccc(C[C@H](NC(=O)C2CCN(C(=O)OC(C)(C)C)CC2)C(=O)O)cc1", "> 5000 nM"],
  ["CCOc1cnn(C(C)(C)C)c(=O)c1-c1ccc(C[C@H](NC(=O)c2c(Cl)cccc2Cl)C(=O)O)cc1", "> 1000 nM"],
  ["COc1cnn(C)c(=O)c1-c1ccc(C[C@H](NC(=O)CC(C)C)C(=O)O)cc1", "> 1000 nM"],
  ["CNc1cnn(CC(C)=O)c(=O)c1-c1ccc(C[C@H](NC(=O)c2c(Cl)cccc2Cl)C(=O)O)cc1", "> 1000 nM"],
  ["COc1cnn(C)c(=O)c1-c1ccc(C[C@H](NC(=O)[C@@H](O)C(C)C)C(=O)O)cc1", "> 1000 nM"]
]}

I have 3 compounds here; please give me IC50 for each one.
1. COc1cnn(C)c(=O)c1-c1ccc(C[C@H](NC(=O)C2(NC(=O)OC(C)(C)C)CCCCC2)C(=O)O)cc1
2. COc1cnn(C)c(=O)c1-c1ccc(CC(NC(=O)C2CCCN2C(=O)OC(C)(C)C)C(=O)O)cc1 (mixture of isomers)
3. COc1cnn(CCO)c(=O)c1-c1ccc(C[C@H](NC(=O)OC(C)(C)C)C(=O)OCCO)cc1

Outgoing:
["> 5000 nM", "> 5000 nM", "> 5000 nM"]
